Each recorded value in this set is attributed to the supplement of paper PMC7125110.

B1: glmS ribozyme (parent)
chain: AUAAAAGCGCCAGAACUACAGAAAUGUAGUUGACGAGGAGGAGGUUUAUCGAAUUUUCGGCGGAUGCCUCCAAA

Variants of: B1
testName: self-cleavage kobs at 160 uM GlcN6P; higher = faster cleavage; RNA array
conditionsUsed: with glucosamine-6-phosphate
Variants at the floor of the assay were thinned out.
Outcome: YES for self-cleavage kobs at 160 uM GlcN6P of at least 0.0002 s⁻¹; NO for anything lower.

variantDescriptor: A53U C71U
group: YES

variantDescriptor: G41C A53G
group: NO

variantDescriptor: G40U G43C C68G
group: YES

variantDescriptor: A42G G43U
group: NO

variantDescriptor: U46C U55C
group: YES

variantDescriptor: A39C G66A
group: NO

variantDescriptor: C34G A36C G38U A64C
group: NO

variantDescriptor: G35C U46C C50A
group: NO

variantDescriptor: A6G C11U A15U C50U
group: NO

variantDescriptor: G9A C68G
group: NO
